# experimental target: mouse VISTA (mVISTA) (Mus musculus)
# Construct: expressed in transfected cells; host or cells: Human embryonic kidney 293T cells
# Sequence (Q9D659 33-308): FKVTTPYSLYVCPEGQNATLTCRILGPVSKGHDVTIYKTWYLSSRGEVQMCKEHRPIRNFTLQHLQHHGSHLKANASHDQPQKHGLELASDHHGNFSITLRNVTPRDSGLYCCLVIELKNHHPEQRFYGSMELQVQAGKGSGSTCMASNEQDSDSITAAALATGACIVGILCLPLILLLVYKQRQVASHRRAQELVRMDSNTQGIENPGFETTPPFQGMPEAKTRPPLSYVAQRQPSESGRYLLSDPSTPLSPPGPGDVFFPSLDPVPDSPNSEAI
# procedure text: Cell-Based Binding High-Content Assay For mVISTA (HC CBA mVISTA)
# experimental parameters: 293T cells expressing mouse VISTA; competition with biotinylated peptide (2 nM); read-out: HC CBA mVISTA IC50
Positions of bridges follow the written chain, without caps; N, C: chain ends. Non-standard residues stand in square brackets, D forms with d. Residues, ends and D or L forms follow the SMILES beside them. Ahp(2) = CCCCC[C@H](N)C(=O)O; NHexGly = CCCCCCNCC(=O)O; Nle = CCCC[C@H](N)C(=O)O
reported endpoint: pIC50
Remember, pIC50 is on a log scale: it is -log10 of the molar concentration.

Example results:
>  <compound>
CCCCCCN1CC(=O)N[C@@H](Cc2ccc(O)cc2)C(=O)N[C@@H](CCCCC)C(=O)N[C@@H](CC(=O)O)C(=O)N[C@@H](CCCNC(=N)N)C(=O)N[C@@H](CC(C)C)C(=O)N[C@@H](CCCCC)C(=O)N2CCC[C@H]2C(=O)N[C@@H](C(C)C)C(=O)N[C@@H](CO)C(=O)N[C@H](C(=O)NCC(N)=O)CSCC(=O)N[C@@H](Cc2ccccc2)C(=O)N[C@@H](Cc2ccc(O)cc2)C(=O)N[C@@H](CC(=O)O)C1=O [Example 1038] ({CH2CO}-FYD[NHexGly]Y[Ahp(2)]DRL[Ahp(2)]PVSCG-NH2; thioether N-14)

>  <value>
7.42

$$$$
>  <compound>
CCCCCCN1CC(=O)N[C@@H](Cc2ccc(O)cc2)C(=O)N[C@@H](CCCC)C(=O)NCC(=O)N[C@@H](CCCNC(=N)N)C(=O)N[C@@H](CC(C)C)C(=O)N[C@@H](CCCCC)C(=O)N2CCC[C@H]2C(=O)N[C@@H](C(C)C)C(=O)N[C@@H](Cc2ccc(O)cc2)C(=O)N[C@H](C(=O)NCC(=O)O)CSCC(=O)N[C@@H](Cc2ccccc2)C(=O)N[C@@H](Cc2ccc(O)cc2)C(=O)N[C@@H](CC(=O)O)C1=O [Example 1070] ({CH2CO}-FYD[NHexGly]Y[Nle]GRL[Ahp(2)]PVYCG-OH; thioether N-14)

>  <value>
7.74

$$$$
>  <compound>
CCCCCCN1CC(=O)N[C@@H](Cc2ccc(O)cc2)C(=O)N[C@@H](CCCCC)C(=O)N[C@@H](CC(N)=O)C(=O)N[C@@H](CCCNC(=N)N)C(=O)N[C@@H](CC(C)C)C(=O)N[C@@H](CCCCC)C(=O)N2CCC[C@H]2C(=O)N[C@@H](C(C)C)C(=O)N[C@@H](C)C(=O)N[C@H](C(=O)NCC(N)=O)CSCC(=O)N[C@@H](Cc2ccccc2)C(=O)N[C@@H](Cc2ccc(O)cc2)C(=O)N[C@@H](CC(=O)O)C1=O [Example 1006] ({CH2CO}-FYD[NHexGly]Y[Ahp(2)]NRL[Ahp(2)]PVACG-NH2; thioether N-14)

>  <value>
7.41

$$$$

Now consider a different compound.
stdin: Report pIC50 from mouse VISTA (mVISTA) (Mus musculus) testing of CCCCCCN1CC(=O)N[C@@H](Cc2ccc(O)cc2)C(=O)N[C@@H](CCCC)C(=O)NCC(=O)N[C@@H](CCCNC(=N)N)C(=O)N[C@@H](CC(C)C)C(=O)N[C@@H](CCCCC)C(=O)N2CCC[C@H]2C(=O)N[C@@H](C(C)C)C(=O)N[C@@H](CC(=O)O)C(=O)N[C@H](C(=O)NCC(N)=O)CSCC(=O)N[C@@H](Cc2ccccc2)C(=O)N[C@@H](Cc2ccc(O)cc2)C(=O)N[C@@H](CC(=O)O)C1=O [Example 1017] ({CH2CO}-FYD[NHexGly]Y[Nle]GRL[Ahp(2)]PVDCG-NH2; thioether N-14)
stdout: 7.47

// provenance: patent US20240218022A1
